Tested on: 616215-338-R-J1-PDC complex spheroid viability;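 also: spheroids exposed to agents for seven days before viability readout; 100% = DMSO vehicle control viability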
Test: Anticancer human tumor 616215-338-R-J1-PDC patient-derived colon adenocarcinoma cell line growth inhibition [RAS]
Settings: second compound 0.00949 µM; first compound 0.00316 µM; hits give low values
From the text: RAS pathway inhibitors in Combinations in Complex Spheroids A high-throughput screen of multi-cell type tumor spheroids was designed to identify active combinations of RAS pathway inhibitors and targeted small molecules. Complex spheroids include a stromal component modeled by human endothelial cells (HUVEC) and fibroblasts modeled by human mesenchymal stem cells (MSCs). […] Compounds. […] If the clinical Cmax for an agent had not been determined, the highest concentration tested was 10 microM. […]
MEASURE_NAME: viability, T/C (%)
Number in %, nothing else.

MOLECULE: CCN1CCN(Cc2ccc(Nc3ncc(F)c(-c4cc(F)c5nc(C)n(C(C)C)c5c4)n3)nc2)CC1 + CCn1c(-c2cc(N3CCN(C)CC3)cnc2C(C)OC)c2c3cc(ccc31)-c1csc(n1)CC(NC(=O)C1CC1C)C(=O)N1CCCC(N1)C(=O)OCC(C)(C)C2
UNITS_OF_MEASURE: %
viability, T/C: 82.2
//
MOLECULE: C=CC(=O)N1CCN(c2nc(OCC3CCCN3C)nc3c(F)c(-c4nc(N)cc(C)c4C(F)(F)F)c(Cl)cc23)C(C)C1 (stereo not drawn) + CCn1c(-c2cccnc2C(C)OC)c2c3cc(ccc31)N1CCOC(CC(NC(=O)C(C(C)C)N(C)C(=O)C3(F)CCN(C(=O)C#CC(C)(C)N(C)C)CC3)C(=O)N3CCCC(N3)C(=O)OCC(C)(C)C2)C1
UNITS_OF_MEASURE: %
viability, T/C: 106
//
MOLECULE: CC(C)n1nc(-c2ccc3oc(N)nc3c2)c2c(N)ncnc21 + CCn1c(-c2cccnc2C(C)OC)c2c3cc(ccc31)N1CCOC(CC(NC(=O)C(C(C)C)N(C)C(=O)C3(F)CCN(C(=O)C#CC(C)(C)N(C)C)CC3)C(=O)N3CCCC(N3)C(=O)OCC(C)(C)C2)C1
UNITS_OF_MEASURE: %
viability, T/C: 101
//
MOLECULE: C=CC(=O)Nc1cc(Nc2nccc(-c3cn(C)c4ccccc34)n2)c(OC)cc1N(C)CCN(C)C + CCn1c(-c2cc(N3CCN(C)CC3)cnc2C(C)OC)c2c3cc(ccc31)-c1csc(n1)CC(NC(=O)C1CC1C)C(=O)N1CCCC(N1)C(=O)OCC(C)(C)C2
UNITS_OF_MEASURE: %
viability, T/C: 77.3
//
MOLECULE: Nc1ccn(C2OC(CO)C(O)C2(F)F)c(=O)n1 (stereo not drawn) + CCn1c(-c2cccnc2C(C)OC)c2c3cc(ccc31)N1CCOC(CC(NC(=O)C(C(C)C)N(C)C(=O)C3(F)CCN(C(=O)C#CC(C)(C)N(C)C)CC3)C(=O)N3CCCC(N3)C(=O)OCC(C)(C)C2)C1
UNITS_OF_MEASURE: %
viability, T/C: 108
//
MOLECULE: O=C(c1ccc(F)c(F)c1Nc1ccc(I)cc1F)N1CC(O)([C@@H]2CCCCN2)C1 + CCn1c(-c2cc(N3CCN(C)CC3)cnc2C(C)OC)c2c3cc(ccc31)-c1csc(n1)CC(NC(=O)C1CC1C)C(=O)N1CCCC(N1)C(=O)OCC(C)(C)C2
UNITS_OF_MEASURE: %
viability, T/C: 66.8
//
MOLECULE: C=CC(=O)Nc1cc(Nc2nccc(-c3cn(C)c4ccccc34)n2)c(OC)cc1N(C)CCN(C)C + CCn1c(-c2cccnc2C(C)OC)c2c3cc(ccc31)N1CCOC(CC(NC(=O)C(C(C)C)N(C)C(=O)C3(F)CCN(C(=O)C#CC(C)(C)N(C)C)CC3)C(=O)N3CCCC(N3)C(=O)OCC(C)(C)C2)C1
UNITS_OF_MEASURE: %
viability, T/C: 100

Let's switch to this molecule now.
# return recorded viability, T/C for input O=C(c1ccc(F)c(F)c1Nc1ccc(I)cc1F)N1CC(O)([C@@H]2CCCCN2)C1 + CCn1c(-c2cccnc2C(C)OC)c2c3cc(ccc31)N1CCOC(CC(NC(=O)C(C(C)C)N(C)C(=O)C3(F)CCN(C(=O)C#CC(C)(C)N(C)C)CC3)C(=O)N3CCCC(N3)C(=O)OCC(C)(C)C2)C1
105
